- assay_overview: Mouse oral single-dose pharmacokinetic study with Compound EB
- Type: in vivo
- conditions: male, mouse, plasma, po, 100 mg/kg, male mice, 100 mg/kg single oral gavage, 2 hr
property_measured: concentration at 2 h (µg/mL)
Give bare numbers, in µg/mL.

Exam item: Look up concentration at 2 h: Cc1cccc(C)c1COc1cccc(-c2nnn[nH]2)c1
Marked response: 137

###

- assay_overview: Rat pilot single-dose oral pharmacokinetic study with Compound EG
- Format: in vivo
- conditions: male, Sprague-Dawley, rat, plasma; 100 mg/kg single oral gavage, 0.5 HR
property_measured: concentration at 0.5 h (ng/mL)
Answers are plain numbers, in ng/mL.

Exam item: Look up concentration at 0.5 h: Cc1ccc(Cc2nnn[nH]2)cc1OCc1c(C)cccc1C
Marked response: 7000

Provenance of the data: patent US8889724B2
